Item-by-item account of self-splicing fitness (ln)
Assay: self-splicing fitness, log relative to wild type (ln ratio); higher = more splicing; Tetrahymena group I intron in knt gene, E. coli kanamycin selection, DiMSum; sequences stand for … in CUCUCU…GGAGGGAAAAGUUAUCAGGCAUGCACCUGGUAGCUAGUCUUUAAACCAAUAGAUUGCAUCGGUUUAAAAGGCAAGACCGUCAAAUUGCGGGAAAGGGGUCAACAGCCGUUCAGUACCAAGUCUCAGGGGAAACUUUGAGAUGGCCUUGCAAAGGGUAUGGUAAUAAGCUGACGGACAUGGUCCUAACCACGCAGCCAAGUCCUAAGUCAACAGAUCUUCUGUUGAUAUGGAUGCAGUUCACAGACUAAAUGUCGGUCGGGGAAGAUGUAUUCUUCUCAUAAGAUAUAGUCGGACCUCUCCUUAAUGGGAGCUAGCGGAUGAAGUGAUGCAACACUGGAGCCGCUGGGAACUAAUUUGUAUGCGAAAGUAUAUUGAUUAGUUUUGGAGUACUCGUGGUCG;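 also: selection with 25 µg/mL kanamycin versus none on LB agar overnight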
Conditions: 37 °C
reportedEndpoint: self-splicing fitness (ln)

INSERT INTO results (sequencechain, reportedendpoint, testresult) VALUES
  ('ACUGAGCAAUAUUACGGAUC', 'self-splicing fitness (ln)', -1.91),
  ('UUCCAGCAAUAUUACGACCG', 'self-splicing fitness (ln)', -0.758),
  ('UUGAAGCAAUAUUACGAGCG', 'self-splicing fitness (ln)', 0.65),
  ('CGUAAGCAAUAUUACGUCUC', 'self-splicing fitness (ln)', -1.95),
  ('UGUCAGCAAUAUUACGGCCA', 'self-splicing fitness (ln)', -0.162),
  ('CAUCAGCAAUAUUACGCCUG', 'self-splicing fitness (ln)', -0.495),
  ('ACAGAGCAAUAUUACGUUAC', 'self-splicing fitness (ln)', -2.96),
  ('ACCUAGCAAUAUUACGCACA', 'self-splicing fitness (ln)', -0.476),
  ('CUCCAGCAAUAUUACGGAUA', 'self-splicing fitness (ln)', -0.962),
  ('UCAAAGCAAUAUUACGUCCA', 'self-splicing fitness (ln)', -0.715),
  ('GAUAAGCAAUAUUACGUGAG', 'self-splicing fitness (ln)', -0.113),
  ('CAACAGCAAUAUUACGCAGU', 'self-splicing fitness (ln)', -3.62),
  ('ACCCAGCAAUAUUACGAGUG', 'self-splicing fitness (ln)', -0.755),
  ('UACCAGCAAUAUUACGACGU', 'self-splicing fitness (ln)', -0.692),
  ('AGGCAGCAAUAUUACGCUGA', 'self-splicing fitness (ln)', -1.84),
  ('AGGAAGCAAUAUUACGUUUU', 'self-splicing fitness (ln)', -1.82),
  ('UCAAAGCAAUAUUACGAGUU', 'self-splicing fitness (ln)', -2.28),
  ('UAUCAGCAAUAUUACGCGUU', 'self-splicing fitness (ln)', -1),
  ('UCAGAGCAAUAUUACGCGUG', 'self-splicing fitness (ln)', -2.05),
  ('UAAUAGCAAUAUUACGCCAG', 'self-splicing fitness (ln)', -1.2),
  ('CUAGAGCAAUAUUACGCCGG', 'self-splicing fitness (ln)', -0.534),
  ('ACAUAGCAAUAUUACGUUCC', 'self-splicing fitness (ln)', -2.1),
  ('GAUGAGCAAUAUUACGGAUA', 'self-splicing fitness (ln)', -2.52),
  ('GUCGAGCAAUAUUACGCAAU', 'self-splicing fitness (ln)', -0.467),
  ('CGUCAGCAAUAUUACGGCGG', 'self-splicing fitness (ln)', 0.0141),
  ('ACGCAGCAAUAUUACGAAGC', 'self-splicing fitness (ln)', -1.6),
  ('GCCUAGCAAUAUUACGUUAA', 'self-splicing fitness (ln)', -1.28),
  ('AGAUAGCAAUAUUACGAAUU', 'self-splicing fitness (ln)', -1.25),
  ('UUUCAGCAAUAUUACGGCAA', 'self-splicing fitness (ln)', -0.0559),
  ('GCCGAGCAAUAUUACGCACA', 'self-splicing fitness (ln)', -1.51),
  ('AAGAAGCAAUAUUACGUCAU', 'self-splicing fitness (ln)', -1.04),
  ('AUCUAGCAAUAUUACGUGAC', 'self-splicing fitness (ln)', -1.14),
  ('UCUUAGCAAUAUUACGUGUU', 'self-splicing fitness (ln)', -2.3),
  ('UUAAAGCAAUAUUACGUGGU', 'self-splicing fitness (ln)', -2.73);

----------
Assay: self-splicing fitness, log relative to wild type (ln ratio); higher = more splicing; Tetrahymena group I intron in knt gene, E. coli kanamycin selection, DiMSum; sequences stand for … in CUCUCU…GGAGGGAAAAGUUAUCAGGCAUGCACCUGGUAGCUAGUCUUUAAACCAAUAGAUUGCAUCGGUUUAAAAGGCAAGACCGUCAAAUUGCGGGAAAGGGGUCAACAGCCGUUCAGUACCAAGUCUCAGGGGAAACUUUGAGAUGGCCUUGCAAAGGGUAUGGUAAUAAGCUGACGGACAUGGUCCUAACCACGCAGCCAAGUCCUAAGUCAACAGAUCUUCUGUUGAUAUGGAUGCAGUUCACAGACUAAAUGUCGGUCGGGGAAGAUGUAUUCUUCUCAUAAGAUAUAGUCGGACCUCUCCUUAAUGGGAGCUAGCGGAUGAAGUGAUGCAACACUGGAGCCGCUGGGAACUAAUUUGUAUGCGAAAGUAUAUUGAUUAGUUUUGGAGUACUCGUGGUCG
Settings: 37 °C
Label Criterion met when self-splicing fitness (ln) is at or above -2; anything below gets Criterion not met.

INSERT INTO results (sequencechain, group) VALUES
  ('AAUUAGCAAUAUUACGCCUG', 'Criterion met'),
  ('ACGUAGCAAUAUUACGCCCC', 'Criterion met'),
  ('GUCUAGCAAUAUUACGGCAC', 'Criterion met'),
  ('UGCAAGCAAUAUUACGUCCU', 'Criterion met'),
  ('UAUCAGCAAUAUUACGGGGA', 'Criterion met'),
  ('CCUUAGCAAUAUUACGAGUC', 'Criterion not met'),
  ('AAUUAGCAAUAUUACGGCAG', 'Criterion met'),
  ('CCCGAGCAAUAUUACGUUGC', 'Criterion not met'),
  ('CCUAAGCAAUAUUACGACUA', 'Criterion met'),
  ('ACCUAGCAAUAUUACGGCCU', 'Criterion met'),
  ('CGAAAGCAAUAUUACGAACA', 'Criterion met'),
  ('CUUUAGCAAUAUUACGGAUA', 'Criterion not met'),
  ('AUCGAGCAAUAUUACGUCGU', 'Criterion met'),
  ('AAUGAGCAAUAUUACGUCGC', 'Criterion not met'),
  ('UUCGAGCAAUAUUACGGAAG', 'Criterion not met'),
  ('CAAUAGCAAUAUUACGGUAG', 'Criterion met'),
  ('UGGGAGCAAUAUUACGUGUA', 'Criterion not met'),
  ('CACUAGCAAUAUUACGGGCA', 'Criterion met'),
  ('AAAAAGCAAUAUUACGAUCU', 'Criterion met'),
  ('AAGGAGCAAUAUUACGUCCA', 'Criterion met'),
  ('CCCAAGCAAUAUUACGGUAC', 'Criterion not met'),
  ('CUGCAGCAAUAUUACGAAGG', 'Criterion met'),
  ('AAUGAGCAAUAUUACGUAUU', 'Criterion not met'),
  ('CUAGAGCAAUAUUACGUAAU', 'Criterion not met'),
  ('CAAGAGCAAUAUUACGGCCU', 'Criterion met'),
  ('GUGCAGCAAUAUUACGGUGG', 'Criterion met'),
  ('GUCCAGCAAUAUUACGCAGC', 'Criterion met'),
  ('AUUUAGCAAUAUUACGGAGG', 'Criterion not met'),
  ('UGUUAGCAAUAUUACGCGGC', 'Criterion not met'),
  ('CCAGAGCAAUAUUACGGACU', 'Criterion met'),
  ('GCUUAGCAAUAUUACGAAUC', 'Criterion met'),
  ('AAGGAGCAAUAUUACGGCAC', 'Criterion met'),
  ('GGAGAGCAAUAUUACGCACU', 'Criterion met'),
  ('ACGUAGCAAUAUUACGGCCC', 'Criterion met');

----------
Assay: self-splicing fitness, log relative to wild type (ln ratio); higher = more splicing; Tetrahymena group I intron in knt gene, E. coli kanamycin selection, DiMSum; sequences stand for … in CUCUCU…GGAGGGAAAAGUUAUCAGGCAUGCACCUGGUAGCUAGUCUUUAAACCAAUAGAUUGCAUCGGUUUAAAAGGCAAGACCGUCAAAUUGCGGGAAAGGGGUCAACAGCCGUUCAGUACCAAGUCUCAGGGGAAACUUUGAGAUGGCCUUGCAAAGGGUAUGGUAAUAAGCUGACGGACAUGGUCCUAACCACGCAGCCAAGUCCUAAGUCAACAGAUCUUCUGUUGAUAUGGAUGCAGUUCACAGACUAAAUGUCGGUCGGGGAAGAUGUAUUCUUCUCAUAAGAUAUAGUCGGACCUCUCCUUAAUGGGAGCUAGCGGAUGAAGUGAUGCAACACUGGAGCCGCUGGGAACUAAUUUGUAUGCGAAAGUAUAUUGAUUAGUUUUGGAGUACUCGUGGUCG
Details: 37 °C
Label rule met when self-splicing fitness (ln) is at or above -2; anything below gets rule not met.

INSERT INTO measurements (sequencechain, group) VALUES
  ('CCGUAGCAAUAUUACGGCAU', 'rule not met'),
  ('CCCGAGCAAUAUUACGCAGA', 'rule not met'),
  ('UCGUAGCAAUAUUACGGCUU', 'rule met'),
  ('UAUCAGCAAUAUUACGGGGC', 'rule not met'),
  ('ACCUAGCAAUAUUACGUUCU', 'rule met'),
  ('ACCAAGCAAUAUUACGUAUC', 'rule not met'),
  ('GCCUAGCAAUAUUACGUUGC', 'rule met');
